- Tested on: BALB/C mice
- ASSAY: In vivo expression, whole-body luminescence (IVIS)
- CONDITION INFO: cirRNA (SEQ ID NO: 1) LNPs, BALB/C mice
Collected In vivo Expression (Whole Body) values appear next to each entry.

Here is how some compounds turned out for In vivo Expression (Whole Body).
COMPOUND | TARGET OR TEST SYSTEM | In vivo Expression (Whole Body)
CCCCC/C=C\CCOC(=O)CCCCCN(CCCCCCCCOC(=O)C(CCCCCC)CCCCCCCC)CCOC(=O)NCCN(C)C (stereo not shown) [Lipid 184] | BALB/C mice | 5.28E+07
CCCCCCCC/C=C\CCCCCCCCN(CCCCCCCCOC(=O)C(CCCCCC)CCCCCCCC)CCOC(=O)NCCN(C)C (stereo not shown) | BALB/C mice | 1.09E+07
CCCCCCCC/C=C\CCCCCCCCN(CCCCCCCCOC(=O)C(CCCCCC)CCCCCCCC)CCOC(=O)NCCN1CCOCC1 (stereo not shown) | BALB/C mice | 1.61E+07

Next compound, please.
## Task Request the reported In vivo Expression (Whole Body) associated with CCCCC/C=C\C/C=C\CCCCCCCCN(CCCCCC(=O)OCC(CCCCCCCC)CCCCCCCCCC)CCOC(=O)NCc1ncc[nH]1 (stereo not shown)
## Result 2.55E+05

###

- ASSAY: LNP size and polydispersity index (PDI) by dynamic light scattering
- Type: physicochemical
- CONDITION INFO: LNP with mRNA (SEQ ID NO: 2)
Collected PDI values appear next to each entry.
Reply briefly: the number, and no unit.

Here is how some compounds turned out for PDI.
COMPOUND | PROPERTY MEASURED | REPORTED RESULT
CCCCCCCCCCC(CCCCCCCC)COC(=O)CCCCCN(CCCCCC(=O)OCC(CCCCCCCC)CCCCCCCCCC)CCOC(=O)NCCN(C)C (stereo not drawn) [Lipid 170] | PDI | 0.0744
CCCCCCCCC(CCCCCCCC)OC(=O)CCCCCCCN(CCCCCCCCOC(=O)C(CCCCCC)CCCCCCCC)CCCOC(=O)NCCCN(C)C (stereo not drawn) [Lipid 348] | PDI | 0.1488

Next compound, please.
## Task Request the reported PDI associated with CCCCCCCCC(CCCCCCCC)OC(=O)CCCCCCCN(CCCCCCCCOC(=O)C(CCCCCC)CCCCCCCC)CCCOC(=O)NCCN(C)C (stereo not drawn) [Lipid 344]
## Result 0.1063

###

- System: MCP-I
- ASSAY: MCP-I cytokine elevation in serum
- Assay type: in vivo
- CONDITION INFO: cirRNA (SEQ ID NO: 1) LNPs, mice, 2 hours
// NB: equality with 4000 pg/mL counts as f; only MCP-I in Sera 2 hours After 0.5 MPK Injection strictly below is t

COMPOUND | TARGET OR TEST SYSTEM | GROUP
CCCCCCCCC(CCCCCC)C(=O)OCCCCCCCCN(CCCCCCCCCCC(=O)OCCCCCC)CCOC(=O)NCCN(C)C (centres unmarked) | MCP-I | f
CCCCCCCCCCC(CCCCCCCC)COC(=O)CCCCCN(CCCCCC(=O)OCC(CCCCCCCC)CCCCCCCCCC)CCOC(=O)NCCN1CCCCC1 (centres unmarked) | MCP-I | t
CCCCC/C=C\C/C=C\CCCCCCCCN(CCCCCC(=O)OCC(CCCCCCCC)CCCCCCCCCC)CCOC(=O)NCCN(C)C (centres unmarked) | MCP-I | f
CCCCCCCCC(CCCCCC)C(=O)OCCCCCCCCN(CCCCCCCCOC(=O)C(CCCCCC)CCCCCCCC)CCCOC(=O)NCCN(C)C (centres unmarked) | MCP-I | t

Now consider the entry below.
## Task Please let me know if CCCCC/C=C\C/C=C\CCCCCCCCN(CCCCCCCC(=O)OC(CCCCCCCC)CCCCCCCC)CCCOC(=O)NCCN1CCCCC1 shows MCP-I in Sera 2 hours After 0.5 MPK Injection below 4000 pg/mL.
## Result t
